# Procedure Text: yeast display, Sf9 membrane polyspecificity reagent, FACS + sequencing; frameworks hold sequencing errors
Result Type: polyreactivity (PSR sort gate)

Would you please look over these solved cases?
Sequence | polyreactivity (PSR sort gate)
QVQLVESGGGLVQAGGSLRLSCAASGSTFYPNAMGWYRQAPGKERELVAAITSGGSTYYADSVKGRFTSSRDNAKNTVYLQMTSLKPEDTAVYYCAAQRRYHQDTTIGPGNYSYWGQGTQVTVSS | low polyreactivity
QVQLVESGGGLVQAGGRLRLSCAASGNTFYLNAIGWYRQAPGKERELVAAITIRGDSTYYADSVKGRFTISRDNAKNTVYLQMISLKPEDTAVYSCAAPWAWNTGYRVYYGGQGTQVTVSS | high polyreactivity
QVQLVESGGGLVQAGGSLRLSCAASGLTFALYAMGWYRQAPGQERELVAAIDWSGGITYYADSVKGRFTISRDHAKNTVYLQMNSLKPEDTAVYYCAARPSTFKYKYGYWGQGTQVTVSS | high polyreactivity
QVQLVESGGGLVQAGGSLRLSCAASGRTSYVYAMGWYRQAPGKERELVATISFRGGSTYYADSVKGRFTISRDNAKNTVYLQMNSLKPEDTAVYYCAATTPYYTPRRRNEYWGQGTQVTVSS | high polyreactivity

Below: the item to evaluate.
Which value of polyreactivity (PSR sort gate) has been reported for `QVQLVESGGGLVQAGGSLRLSCAASGLTFASNAMGWYRQAPGKERELVAAISWSDGSTYYADSVKGRFTISRDNAKNTVYLQMNSLKPEDTAVYYCAAEPPGFRTSRVGYWGQGTQVTVSS` in the records?
low polyreactivity

---

# Procedure Text: yeast display, Sf9 membrane polyspecificity reagent, FACS + sequencing; frameworks hold sequencing errors
Result Type: polyreactivity (PSR sort gate)

Would you please look over these solved cases?
Sequence | Endpoint Value
QVQLVESGGGLVQAGGSLRLSCAASGSNFRRNAMGWYRQAPGKERELVAAINSRGGSTYYADSVKGRFTISRDNAKNTVYLQMNSLKPEDTAVFYCATARFLRYDRYDDYWGQGTQVTVSS | low polyreactivity
QVQHVESGRGLVQAGGSLRLSCAASGITFRYYAMGWYRQAPGKERELVAAISRGTSTKYADSVKGRFTISRDNAKNTVYLQMNSQKPEDTAVYYCAVYGYWSKSDYWGQGTQVTVSS | low polyreactivity
QVQLVETGGGLVQAGGSLRLRCAPSGSTFSEYAMGWYRQAPGKERELVPAITSGGITNYADSVKGRFTISRDNSKNTVYFKMNSLKPEDTAVYYCNTQDVYGDPVESLVDYDYWGQGTQVTVSS | high polyreactivity
QVQLVESGGGLVQAGGSLRLSCAASGSTFLKNAMGWYRQAPGKERELVAAISYSTTRTYYADSVKGRFTISRDNAKNTVYLQMNSLKPEDTAVYSCNARWQEPLKYDYWGQGTQVTVSS | low polyreactivity
QVQLVESGGGLVQAGGSLRLSCAASGFKYAMGWYRQATGKERELVAAISSGGITSYADSVKGRFTISRDNAKNTVYLQMNSLKPEDTAVYYCNARLRHSQYAYYYWGQGTQVTVSS | high polyreactivity

Which value of polyreactivity (PSR sort gate) has been reported for `QVQIVESGGGLVQAGGSLRLSCAASGRIFYNYAMGWNRQAPGKERELVAAISGSGGSTYYADSVKGRFTISRDNAKNTVYLQMNSLKPEDTAVYYCSTSGPQYYSRNFDYWGQGTQVTVSS` in the records?
low polyreactivity

Consider next the sequence `QVQLVESGGGLVQAGGSLRLSCAASGSIFLLYAMGWYRQAPGKERELVARISWSGDNTRYADSVKGRFTISRDNAKNTVYLQMNSLKPEDTAVYYCNAYYFYGQWKGYDYWGQGTQVTVSS` in the same way.
low polyreactivity

Consider next the sequence `QFQLVESGGGLVQAGGSLRLSCAASGITIRWYAMGWYRQAPGKERELVAGISSRGDSTYYADSVKGRFTISRDNAKNTVYLQMNSLKREDTAVYYCAAPGSSYRGRGYDYWGQGTQVTVSS` in the same way.
high polyreactivity

Consider next the sequence `QDQLVESGGGLVQEGGSLRLSCAASVRIFGPYAMGWYRQAPGKERELLAAITRGGSTSYADSVKGRFTISRDNAKNTVYLQMNSLKPEDTAVYYCAADTLRWWDGFDYWGQGTQVTVST` in the same way.
low polyreactivity

Consider next the sequence `QVQLVESGGGLVQAGGSLRLSCAASGITFGYYAMGRYRQAPGKERELVAAISNSGRTYYADSVKGRFTISRDNAKNTVYLQMNSLKPEDTAVYYCAVRISGNWYDYWGQGTQVTVSS` in the same way.
low polyreactivity

Consider next the sequence `QVQLVESGGGLVQAGGSLRLSCAASGSIFRYNAMGWYRQAPGKERELVAAISGRGTSTYYADSVKGRFTISRDNAKNTVYLQMNSLKPEDTAVYYCAAVYFRTFLVEYYYWGQGTQVTVSS` in the same way.
high polyreactivity
